Numbers sourced from the kinase profiling compilation of Christmann-Franck et al. (2016).

test system: PIK3CD (human) (UniProt O00329)
Sequence (O00329 whole entry, looked up): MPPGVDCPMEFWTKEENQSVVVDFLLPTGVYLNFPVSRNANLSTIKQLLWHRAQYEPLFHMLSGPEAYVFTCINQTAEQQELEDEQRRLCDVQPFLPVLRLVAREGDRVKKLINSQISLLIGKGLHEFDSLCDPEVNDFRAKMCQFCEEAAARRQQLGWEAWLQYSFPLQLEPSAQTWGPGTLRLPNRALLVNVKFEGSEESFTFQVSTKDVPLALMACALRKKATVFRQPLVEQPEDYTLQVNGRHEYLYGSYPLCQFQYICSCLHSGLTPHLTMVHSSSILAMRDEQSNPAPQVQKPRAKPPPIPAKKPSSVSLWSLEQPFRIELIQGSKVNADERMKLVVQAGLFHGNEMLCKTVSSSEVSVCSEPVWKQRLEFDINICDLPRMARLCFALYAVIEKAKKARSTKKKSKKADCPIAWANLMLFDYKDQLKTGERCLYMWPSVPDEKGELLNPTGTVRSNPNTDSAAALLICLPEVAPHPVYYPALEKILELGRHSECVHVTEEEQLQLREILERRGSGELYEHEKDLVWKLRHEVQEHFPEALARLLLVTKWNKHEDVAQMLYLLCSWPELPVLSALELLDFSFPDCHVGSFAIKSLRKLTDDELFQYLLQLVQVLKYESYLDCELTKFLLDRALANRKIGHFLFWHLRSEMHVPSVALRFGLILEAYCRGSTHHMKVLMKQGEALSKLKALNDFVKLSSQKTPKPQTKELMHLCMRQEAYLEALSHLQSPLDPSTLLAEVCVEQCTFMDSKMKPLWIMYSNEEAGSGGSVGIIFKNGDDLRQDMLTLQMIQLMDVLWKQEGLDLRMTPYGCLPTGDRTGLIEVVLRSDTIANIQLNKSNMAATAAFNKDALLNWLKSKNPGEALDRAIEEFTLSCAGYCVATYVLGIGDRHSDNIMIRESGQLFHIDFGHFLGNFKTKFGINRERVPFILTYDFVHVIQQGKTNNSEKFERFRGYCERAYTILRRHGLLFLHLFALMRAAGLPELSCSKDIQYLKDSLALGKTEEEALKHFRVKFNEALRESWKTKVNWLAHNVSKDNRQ
measurement description: KINOMEscan competition binding
test conditions: compound 10.0 µM
One threshold, 80%, splits the recorded kinase still bound, per cent of control values: lower ones are criterion met, equal or higher ones are criterion not met.

INPUT: Item COc1cc(N2CCN(C)CC2)ccc1Nc1nc(N)c(C(=O)c2c(Cl)cccc2Cl)s1 : kinase still bound, per cent of control beneath 80%, strictly?
OUTPUT: criterion not met

INPUT: Do the same for CC[C@@H]1C(=O)N(C)c2cnc(Nc3ccc(C(=O)NC4CCN(C)CC4)cc3OC)nc2N1C1CCCC1 please
OUTPUT: criterion not met

INPUT: Do the same for COc1cc(C(=O)NC2CCN(C)CC2)ccc1Nc1ncc2c(n1)N(C1CCCC1)C(C)CC(=O)N2C (centres undefined) please
OUTPUT: criterion not met

INPUT: Do the same for N#Cc1c(NC(=O)c2cccc3ccccc23)sc2c1CCCC2 please
OUTPUT: criterion not met

INPUT: Do the same for CCN1CCN(Cc2ccc(Nc3ncc4c(n3)N(C)c3ccccc3C(=O)N4C)cc2C(F)(F)F)CC1 please
OUTPUT: criterion met

INPUT: Do the same for CN(C)C/C=C/C(=O)Nc1cccc(Nc2ncc3c(n2)N(C)c2ccccc2C(=O)N3C)c1 please
OUTPUT: criterion met

INPUT: Do the same for O=C(NC1CC1)c1cccc(-c2ccc3c(NC(=O)C4CC4)n[nH]c3c2)c1 please
OUTPUT: criterion not met

INPUT: Do the same for O=C(NOC[C@H](O)CO)c1ccc(F)c(F)c1Nc1ccc(I)cc1F please
OUTPUT: criterion met

* * *

test system: UniProtKB Q8N752
Sequence (Q8N752 whole entry, looked up): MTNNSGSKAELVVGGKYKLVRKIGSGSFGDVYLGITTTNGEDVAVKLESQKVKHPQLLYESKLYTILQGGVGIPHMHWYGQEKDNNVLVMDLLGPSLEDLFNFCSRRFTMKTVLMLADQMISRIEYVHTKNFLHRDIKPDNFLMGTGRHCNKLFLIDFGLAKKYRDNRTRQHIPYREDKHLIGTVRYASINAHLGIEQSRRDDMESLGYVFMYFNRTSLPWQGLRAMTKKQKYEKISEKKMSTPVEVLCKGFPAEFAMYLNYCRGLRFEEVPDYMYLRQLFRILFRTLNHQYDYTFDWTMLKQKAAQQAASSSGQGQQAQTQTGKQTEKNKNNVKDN
measurement description: KINOMEscan competition binding
test conditions: compound 10.0 µM
Task for the reader: assign each of the following molecules its reported kinase still bound, per cent of control.
Answer shape: numeric part, then the unit.

INPUT: Please give the measured kinase still bound, per cent of control for this molecule: Cc1ccc(NC(=O)c2cccc(C(C)(C)C#N)c2)cc1Nc1ccc2ncn(C)c(=O)c2c1
OUTPUT: 100%

INPUT: Do the same for O=C1Nc2ccc(I)cc2/C1=C/c1cc(Br)c(O)c(Br)c1 please
OUTPUT: 100%

INPUT: Do the same for N#Cc1c(NC(=O)c2cccc3ccccc23)sc2c1CCCC2 please
OUTPUT: 66%

INPUT: Do the same for C=CC(=O)Nc1cc(NC(=O)c2ccc(C)c(NC(=O)c3ccno3)c2)cc(C(F)(F)F)c1 please
OUTPUT: 90%

INPUT: Do the same for Cc1ccc2nc(NCCN)c3ncc(C)n3c2c1 please
OUTPUT: 100%

INPUT: Do the same for CC[C@@H]1C(=O)N(C)c2cnc(Nc3ccc(C(=O)NC4CCN(C)CC4)cc3OC)nc2N1C1CCCC1 please
OUTPUT: 100%

INPUT: Do the same for C=CC(=O)Nc1cccc(Oc2nc(Nc3ccc(N4CCN(C)CC4)cc3OC)ncc2Cl)c1 please
OUTPUT: 100%

* * *

test system: MAP3K13 (human)
measurement description: KINOMEscan competition binding
test conditions: compound 10.0 µM
quantity name: kinase still bound, per cent of control (%)
Kindly answer with a numeric value in %, unit omitted.

INPUT: Please give the measured kinase still bound, per cent of control for this molecule: Cc1cc([C@@H](C)Nc2ccccc2C(=O)O)c2nc(N3CCOCC3)cc(=O)n2c1
OUTPUT: 100

INPUT: Do the same for CCC(=O)N1CCN(c2ccc(-n3c(=O)ccc4cnc5ccc(-c6cnc7ccccc7c6)cc5c43)cc2C(F)(F)F)CC1 please
OUTPUT: 100

INPUT: Do the same for Cc1ccc2nc(NCCN)c3ncc(C)n3c2c1 please
OUTPUT: 74

INPUT: Do the same for O=C1Nc2ccc(I)cc2/C1=C/c1cc(Br)c(O)c(Br)c1 please
OUTPUT: 100

INPUT: Do the same for CN(C)C/C=C/C(=O)Nc1cccc(Nc2ncc3c(n2)N(C)c2ccccc2C(=O)N3C)c1 please
OUTPUT: 40
